A collection of binders and their measured specificity ELISA, fold over background
- target_system: T1, Acro COVID S1 (S1N-C82E8) (SARS-CoV-2, UniProt P0DTC2 16-685)
- T1 construct: domain: S1 (subunit 1)
- test_method_notes: phage ELISA
Please make sure the unit comes right after the number.

SARS-CoV-2 variant 1-21 (antibody, V domains shown) VH: EVQLLESGGGLVQPGGSLRLSCAASGFTFSSYTMSWVRQAPGKGLEWVSIISGSGGSTYYADSVKGRFTISRDNSKNTLYLQMNSLRAEDTAVYYCAREGYRDYLWYFDLWGQGTLVTVSS VL: QSALTQPASVSGSPGQSITISCTGTSSDVGSNNLVSWYQQHPGKAPKLMIYEGNKRPSGVSNRFSGSKSGNTASLTISGLQAEDEADYYCCSYAGSVVFGGGTKLTVL: 19.5 fold over background

Now look at this one.
What does the data say about its specificity ELISA, fold over background? Entry: SARS-CoV-2 variant 1-26 (antibody, V domains shown) VH: EVQLLESGGGLVQPGGSLRLSCAASGFTFSSYAISWVRQAPGKGLEWVSAISGSGYSTYYADSVKGRFTISRDNSKNTLYLQMNSLRAEDTAVYYCARGAPDSSGYYFQGEVYFDYWGQGTLVTVSS VL: QSALTQPASVSGSPGQSITISCTGTSSDVGGYNLVSWYQQHPGKAPKLMIYEGTKRPSGVSNRFSGSKSGNTASLTISGLQAEDEADYYCCSFVRSSAHVVFGGGTKLTVL
1.4 fold over background
